compound | melting point
CSc1ccc(-c2c3ccccc3nn2-c2ccccc2)cc1 [Compound 24] | 119.3 to 121.4 °C
O=C(O)c1ccc(-c2c3ccccc3nn2-c2ccccc2)cc1 [Compound 25] | 296.2 to 298.2 °C
COC(=O)c1ccc(-c2c3ccccc3nn2-c2ccccc2)cc1 [Compound 23] | 164.5 to 166.3 °C
c1ccc(-n2cc3ccccc3n2)cc1 [Compound 7, 2-Phenyl-2H-indazole] | 81.2 to 81.6 °C
CSc1ccc(-n2nc3ccccc3c2-c2ccccc2)cc1 [Compound 19] | 87.7 to 89 °C

* * *

This listing pairs compounds with measured melting point.

compound | melting point
c1ccc(-c2c3ccccc3nn2-c2ccccc2)cc1 | 107.4 to 107.9 °C
C[S+]([O-])c1ccc(-n2cc3ccccc3n2)cc1 (stereo not shown) | 150.1 to 152.7 °C
Oc1ccc(-n2cc3ccccc3n2)cc1 | 179 to 181 °C
O=C(O)c1ccc(-n2cc3ccccc3n2)cc1 | 288.3 to 288.5 °C

* * *

Form field: melting point (one value per entry).

compound | melting point
Clc1ccc(-n2cc3ccccc3n2)cc1 | 143 to 145.5 °C
CS(=O)(=O)c1ccc(-n2nc3ccccc3c2-c2ccccc2)cc1 | 101.8 to 102.7 °C
Clc1ccc(-n2nc3ccccc3c2-c2ccccc2)cc1 | 124.4 to 125 °C
COC(=O)c1ccc(-n2cc3ccccc3n2)cc1 [Compound 10, Methyl 4-(2H-indazol-2-yl) benzoate] | 185.8 to 186.2 °C

* * *

melting point by entry:
measurement-name: melting point

item-smiles | measurement-name | recorded-value
CS(=O)(=O)c1ccc(-n2cc3ccccc3n2)cc1 | melting point | 200.6 to 201.5 °C
CSc1ccc(-n2cc3ccccc3n2)cc1 | melting point | 148.3 to 149.7 °C
COc1ccc(-n2cc3ccccc3n2)cc1 | melting point | 133.2 to 135.8 °C

* * *

System: Candida albicans
method-summary: Disk diffusion susceptibility test; further: key: -: No inhibition; +: Positive inhibition (zone of inhibition mm)
Assay type: cell-based
experimental-conditions: 5 mg per disc, 37 °C, 24 h

compound | target | Inhibition (positive / none) C. albicans
Clc1ccc(-n2nc3ccccc3c2-c2ccccc2)cc1 [Compound 17, 2-(4-Chlorophenyl)-3-phenyl-2H-indazole] | Candida albicans | -
CS(=O)(=O)c1ccc(-c2c3ccccc3nn2-c2ccccc2)cc1 [Compound 26] | Candida albicans | -
c1ccc(-c2c3ccccc3nn2-c2ccccc2)cc1 [Compound 16, 2,3-Diphenyl-2H-indazole] | Candida albicans | -

* * *

Test system: Entamoeba histolytica strain HM1-IMSS
method-summary: In vitro antiprotozoal assay (trophozoite subculture method)
Format: cell-based
experimental-conditions: Entamoeba histolytica; trophozoites, 48 h with compound then 48 h subculture without drug; read-out: IC50 (µM) E. histolytica

compound | IC50 (µM)
O=C(O)c1ccc(-n2cc3ccccc3n2)cc1 | 0.0965
COC(=O)c1ccc(-c2c3ccccc3nn2-c2ccccc2)cc1 | 0.0731
COC(=O)c1ccc(-n2cc3ccccc3n2)cc1 [Compound 10, Methyl 4-(2H-indazol-2-yl) benzoate] | 0.0218
CS(=O)(=O)c1ccc(-c2c3ccccc3nn2-c2ccccc2)cc1 | 0.0459
CS(=O)(=O)c1ccc(-n2nc3ccccc3c2-c2ccccc2)cc1 | 0.208
O=C(O)c1ccc(-c2c3ccccc3nn2-c2ccccc2)cc1 | 0.0509
COc1ccc(-n2cc3ccccc3n2)cc1 | 0.154
Clc1ccc(-n2cc3ccccc3n2)cc1 | 0.0415
Clc1ccc(-n2nc3ccccc3c2-c2ccccc2)cc1 | 0.0213
c1ccc(-n2cc3ccccc3n2)cc1 | 0.0798
Cc1ncc([N+](=O)[O-])n1CCO [MTZ, Metronidazole, reference compound] | 0.38
C[S+]([O-])c1ccc(-n2cc3ccccc3n2)cc1 (stereo not shown) | 0.0878
c1ccc(-c2c3ccccc3nn2-c2ccccc2)cc1 | 0.303
Clc1ccc(-c2c3ccccc3nn2-c2ccccc2)cc1 | 0.0394
CS(=O)(=O)c1ccc(-n2cc3ccccc3n2)cc1 | 0.136
O=C(O)c1ccc(-n2nc3ccccc3c2-c2ccccc2)cc1 | 0.0445
Oc1ccc(-n2cc3ccccc3n2)cc1 | 0.0737
CSc1ccc(-n2cc3ccccc3n2)cc1 | 0.0978
COC(=O)c1ccc(-n2nc3ccccc3c2-c2ccccc2)cc1 | 0.0502
